Tested on: SNB-19 CNS
Test: NCI-60 one-dose screen, 48 h (100 = growth as untreated, 0 = no growth, -100 = all killed)
Details: 10 µM unless noted
The panel holds about 83,000 compounds, 20% with a hit somewhere; the sample as a whole holds those more often. The source made the active and inactive calls. Rule for the calls: active = growth percent below 10; inactive = the rest.
value kind: growth

>>> recorded_result("O=C(Nc1ccc(-c2ccc3c(c2)NC(=O)/C3=C\\c2ccc[nH]2)cc1)Nc1cccc(Cl)c1")
"19.8% (inactive)"
>>> recorded_result("CCCCCCCCc1cccc(CC(=O)Nc2ccc(C)cc2C(=O)O)c1")
"50.9% [25 µM] (inactive)"
>>> recorded_result("COc1ccc(N=Nc2c(N)nn3c(-c4ccc([N+](=O)[O-])cc4)ccnc23)cc1")
"108% (inactive)"
>>> recorded_result("CS(=O)(=O)Nc1cccc(-n2cnc3cc(-c4ccc(O)cc4)ccc32)c1")
"25.4% (inactive)"
>>> recorded_result("CC(=O)Nc1ccc(S(=O)(=O)Nc2ccc(-c3ccc4c(c3)NC(=O)/C4=C\\c3ccc[nH]3)cc2)cc1")
"73% (inactive)"

----------
Test system: T-47D breast
Assay: NCI-60 one-dose screen, 48 h (100 = growth as untreated, 0 = no growth, -100 = all killed)
Settings: 10 µM unless noted
Description: Growth inhibition of the T-47D human tumor cell line is measured as a screen for anti-cancer activity. Cells are grown in 96 well plates and exposed to the test compound for 48 hours. Compounds are tested at a single concentration, which is 10^-5 M for most compounds. The reported endpoint is percent growth (GI% or GIPRCNT), where numbers from 0 - 100% represent growth inhibition, and numbers from -100% - 0 represent cell death. For example, a value of 40 represents 60% growth inhibition. […]
This is part of a sample that, as a whole, favours compounds with a hit. Of some 83,000 tested, about 20% had one in any assay.
value kind: growth (%)

>>> recorded_result("O=C1c2cccc3c(N4CCN(Cc5ccccc5)CC4)ccc(c23)C(=O)N1c1cccc(-c2nn(-c3ccccc3)cc2-c2nc3ccccc3s2)c1")
97.6
>>> recorded_result("COC(=O)c1cc(C(=O)C(F)(F)F)n2c3ccccc3c3ccccc3c12")
64.4
>>> recorded_result("COc1ccc(C(=O)NNC(=O)CSc2nc3sc4c(c3c(=O)n2-c2ccc(Cl)cc2)CCCC4)cc1")
72.5
>>> recorded_result("O=C(CSc1nc2sc3c(c2c(=O)n1-c1ccc(Cl)cc1)CCCC3)N/N=C/C=C/c1ccccc1")
-24.5
>>> recorded_result("COc1ccccc1NC(=O)N/N=C/c1c[nH]c2ccccc12")
36.2
>>> recorded_result("CN(C)c1nc(NCCNS(=O)(=O)c2ccc(C3=Nc4c(N)nc(N)nc4NC(c4ccc(Cl)cc4)C3)cc2)nc(N2CCOCC2)n1 (configuration not stated)")
43
>>> recorded_result("Cc1ccc2nc(SCc3ccccc3F)n(-c3ccccc3)c(=O)c2c1")
81.4
>>> recorded_result("COC(=O)c1cc(C(=O)C(Br)Br)n2c1ccc1c3ccccc3ccc12")
1.99
>>> recorded_result("CN(C)c1nc(NCCNS(=O)(=O)c2ccc(C(=O)/C=C/c3ccc(C(F)(F)F)cc3)cc2)nc(N2CCOCC2)n1")
-61.2
>>> recorded_result("O=C1CCC(N2C(=O)c3cccc(NCCCCCC(=O)N4CCN(c5ccc6nc7c(nc6c5C(F)(F)F)C(=O)c5ncccc5C7=O)CC4)c3C2=O)C(=O)N1 (configuration not stated)")
-41.1
>>> recorded_result("O=C1Nc2cc(-c3ccc(NS(=O)(=O)c4ccc(F)c(Cl)c4)cc3)ccc2/C1=C/c1ccc[nH]1")
14.7
>>> recorded_result("CC[C@]12C=CCN3CC[C@@]4(c5ccc(OC)cc5N(C)[C@H]4[C@@](O)(C(=O)OC)[C@@H]1OC(=O)CCCC[P+](c1ccc(F)cc1)(c1ccc(F)cc1)c1ccc(F)cc1)[C@@H]32")
12.8
>>> recorded_result("Cn1ncc2c(N)nc(Oc3ccccc3-c3ccccc3)nc21")
31.9
>>> recorded_result("O=C(CSc1nnc(-c2ccc(-c3nc4ccc(Cl)cc4[nH]3)cc2)o1)Nc1ccccc1")
93.3
>>> recorded_result("Cc1ccc(Cl)cc1NC(=O)Nc1nc2ccc([N+](=O)[O-])cc2s1")
-19.7
>>> recorded_result("COc1cc(CNC(=O)C[C@H](C)CCC=C(C)C)ccc1OCc1cn(-c2ccc(Cl)c(Cl)c2)nn1")
33.6
>>> recorded_result("O=C(c1ccc(Cl)cc1)C1[C@H](c2ccccc2Cl)[C@@H](c2ccccc2)NC12C(=O)Nc1ccccc12 (some centres not stated)")
-6.74

----------
Tested on: OVCAR-5 ovarian
Assay: NCI-60 one-dose screen, 48 h (100 = growth as untreated, 0 = no growth, -100 = all killed)
Details: 10 µM unless noted
Compounds without any hit were thinned out: in the full panel of roughly 83,000, 20% have a hit.
value kind: growth (%)

>>> recorded_result("COc1cc(/C=C/C(=O)c2cnn(-c3cc(=O)[nH]c4ccc(Br)cc34)c2C)cc(OC)c1OC")
-68
>>> recorded_result("CN(C)c1nc(NCCNS(=O)(=O)c2ccc(C3=Nc4c(N)nc(N)nc4NC(c4ccc(Cl)cc4)C3)cc2)nc(N2CCOCC2)n1 (configuration not stated)")
82.7
>>> recorded_result("COc1ccc2c(c1)c(-c1cc(N)n3nc(-c4c[nH]c5ccccc45)cc3n1)cn2C")
-69.7
>>> recorded_result("COc1ccc(-c2cc(C)nc3[nH]c(=O)sc23)cc1")
80.4
>>> recorded_result("CC(C)C[C@H](NC(=O)[C@@H]1CCCCCCCCCCC(=O)N[C@@H](CC(=O)N2CCC[C@@H]2C2CCCC2)C(=O)N1)B(O)O")
-36.8
>>> recorded_result("CCC(=O)c1cc(C(=O)OC)c2ccc3c4ccccc4ccc3n12")
73.8
>>> recorded_result("COc1cc(C2C(C(=O)OCc3ccccc3)=C(C)Nc3nc4ccccc4n32)cc(OC)c1OC (configuration not stated)")
45.5
>>> recorded_result("OCCn1cc(-c2nc3ccc4[nH]ncc4c3c3c2CCCC3)cn1")
97.8
>>> recorded_result("N#Cc1ccc(C(=O)NNC(=O)CSc2nc3sc4c(c3c(=O)n2-c2ccc(Cl)cc2)CCCC4)cc1")
31.9
>>> recorded_result("CCOc1ccccc1[C@H]1C(C(=O)c2ccc(Cl)cc2)C2(N[C@@H]1c1ccccc1)C(=O)Nc1ccccc12 (some centres not stated)")
14.5
>>> recorded_result("COc1ccc(-c2cc(C(=O)Oc3ccc(C=O)cc3OC)nn2-c2ccc(S(C)(=O)=O)cc2)cc1")
125
>>> recorded_result("NS(=O)(=O)c1cccc(Nc2nc(SCC(=O)c3ccc(F)cc3)nc3ccccc23)c1")
45.1
>>> recorded_result("CN1C(=O)C(O)(CC(=O)c2cc3ccccc3oc2=O)c2ccccc21 (configuration not stated)")
107
>>> recorded_result("CC1CCc2c(sc3nc(SCC(=O)c4cccc([N+](=O)[O-])c4)n(-c4ccccc4)c(=O)c23)C1 (configuration not stated)")
94.2
>>> recorded_result("CC[C@@]12CC(C(=O)OC)=C3Nc4cc5c(cc4[C@@]34CCN(C[C@H]3O[C@H]31)[C@@H]24)[C@@H]1[C@H](O5)[C@@H](O)[C@@]2(CC)CC(C(=O)OC)=C3Nc4cc(O)ccc4[C@@]34CCN1[C@@H]24")
-74.7
>>> recorded_result("Cc1ccc(C(=O)Nc2cc(-n3ccnc3)cc(C(F)(F)F)c2)cc1-n1cc(-c2cnc3cccnn23)nn1")
66.6
>>> recorded_result("COC(=O)c1cc(C(C)=O)n2c3ccccc3c3ccccc3c12")
92.6

----------
System: A549/ATCC NSCLC
Experiment: NCI-60 one-dose screen, 48 h (100 = growth as untreated, 0 = no growth, -100 = all killed)
Conditions: 10 µM unless noted
About 83,000 compounds went through this panel and 20% of them were active in at least one assay; those are over-represented in the sample as a whole. The source made the active and inactive calls. Rule for the calls: active = growth percent below 10; inactive = the rest.
value kind: growth

>>> recorded_result("COC(=O)c1c(C(=O)OC)c2c3ccccc3c3ccccc3n2c1C(=O)C(F)(F)F")
"111% (inactive)"
>>> recorded_result("O=C(NN1C(=O)/C(=C/C=C/c2ccc([N+](=O)[O-])o2)SC1=S)c1ccc([N+](=O)[O-])cc1")
"-93% (active)"
>>> recorded_result("COc1cc2cc(C(=O)N3C[C@@H](CCl)c4c3cc(OC(=O)N(C)CCSSCCN3CCOCC3)c3ccccc43)[nH]c2c(OC)c1OC")
"-9.46% (active)"
>>> recorded_result("O=C(NN1C(=O)/C(=C/C=C/c2ccc([N+](=O)[O-])o2)SC1=S)c1ccc(O)cc1")
"-81.5% (active)"
>>> recorded_result("Nc1nn2c(-c3cc4cc(Br)ccc4oc3=O)ccnc2c1N=Nc1ccccc1")
"53.4% (inactive)"
>>> recorded_result("Cc1ccc(C(C(=O)NC2CCCCC2)N(Cc2ccccc2Cl)C(=O)c2ccc(CN3CCOCC3)o2)o1 (centres undefined)")
"98.5% (inactive)"
>>> recorded_result("O=C1Nc2cc(-c3ccc(NS(=O)(=O)c4ccc(F)c(Cl)c4)cc3)ccc2/C1=C/c1ccc[nH]1")
"3.71% (active)"
>>> recorded_result("COC(=O)CSC1=C(C)C(=O)C(OC)=C(OC)C1=O")
"90.4% (inactive)"
>>> recorded_result("CC(=O)c1c2c(c3ccc4c5ccccc5ccc4n13)C(=O)c1ccccc1C2=O")
"84.1% (inactive)"
>>> recorded_result("CCCCCCCCc1ccc(C(=O)Nc2ccc(C)cc2C(=O)O)cc1")
"66.8% (inactive)"
>>> recorded_result("Fc1ccc(Nc2nnc(-c3c[nH]c4ccccc34)o2)cc1")
"77.5% (inactive)"
>>> recorded_result("COc1ccc(/C=C/c2nc3ccccc3c(=O)n2CC(=O)Nc2ccccc2)cc1")
"27.5% (inactive)"
>>> recorded_result("COc1ccc(N=Nc2c(N)nn3c(-c4cc5ccccc5oc4=O)ccnc23)cc1")
"59.4% (inactive)"
>>> recorded_result("C=CC(=O)Nc1ccc(C(=O)/C=C/c2ccc(N(C)C)cc2)c(O)c1")
"12.8% (inactive)"
>>> recorded_result("COc1ccc(-c2cc(C(=O)N=Nc3c(O)[nH]c4ccc(Cl)cc34)c3ccccc3n2)cc1OC")
"111% (inactive)"
>>> recorded_result("Cn1cc(Nc2ncnc(-c3ccc(N4CCCC4)c(C#N)c3)n2)cn1")
"83.7% (inactive)"
>>> recorded_result("Cc1ccc(C2CC(c3ccc(NC(=O)Nc4ccccc4)cc3)=NN2c2ccc(S(N)(=O)=O)cc2)cc1 (centres undefined)")
"-61.4% (active)"
>>> recorded_result("Cc1nc(N)ncc1-c1ccc2ncnc(N3CCc4cc(F)c(Cl)cc43)c2c1")
"56.2% (inactive)"
>>> recorded_result("Nc1nc2cc(-c3ccc4ncnc(NCc5ccccc5)c4c3)ccc2o1")
"11.4% (inactive)"
